target: T1, human c-Met antigen (Sino Biological) (human, UniProt P08581 25-932); experiment: SPR (BIACORE T200), antibody captured on protein A CM5 chip, human c-Met as analyte
T1 construct: Bought antigen used as the analyte in SPR; also called hepatocyte growth factor receptor; HGFR
T1 sequence (P08581 25-932 limits assumed): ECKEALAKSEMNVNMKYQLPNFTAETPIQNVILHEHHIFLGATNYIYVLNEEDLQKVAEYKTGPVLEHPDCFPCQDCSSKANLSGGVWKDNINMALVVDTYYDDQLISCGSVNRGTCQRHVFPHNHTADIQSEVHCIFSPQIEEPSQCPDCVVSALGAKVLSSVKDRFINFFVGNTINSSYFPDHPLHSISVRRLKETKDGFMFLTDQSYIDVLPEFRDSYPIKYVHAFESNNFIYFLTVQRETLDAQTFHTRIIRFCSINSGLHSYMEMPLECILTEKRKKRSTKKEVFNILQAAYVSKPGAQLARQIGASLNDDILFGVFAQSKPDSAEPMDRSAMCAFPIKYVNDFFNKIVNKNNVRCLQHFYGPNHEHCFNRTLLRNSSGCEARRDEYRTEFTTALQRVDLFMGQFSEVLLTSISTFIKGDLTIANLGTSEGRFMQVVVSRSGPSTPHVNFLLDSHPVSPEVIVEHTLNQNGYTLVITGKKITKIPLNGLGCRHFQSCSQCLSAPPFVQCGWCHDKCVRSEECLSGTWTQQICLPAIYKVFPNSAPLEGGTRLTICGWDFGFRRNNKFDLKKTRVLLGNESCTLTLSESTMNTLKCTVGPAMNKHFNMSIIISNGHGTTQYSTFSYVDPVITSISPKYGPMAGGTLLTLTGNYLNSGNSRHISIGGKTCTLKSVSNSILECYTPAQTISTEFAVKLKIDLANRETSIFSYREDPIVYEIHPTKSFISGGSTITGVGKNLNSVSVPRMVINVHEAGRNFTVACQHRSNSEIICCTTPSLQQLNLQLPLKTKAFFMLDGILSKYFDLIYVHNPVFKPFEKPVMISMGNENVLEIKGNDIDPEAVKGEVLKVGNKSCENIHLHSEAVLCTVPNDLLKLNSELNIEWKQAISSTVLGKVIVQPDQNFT
Endpoint: Relative KD to VH0/Vk0

Name the recorded Relative KD to VH0/Vk0 for VH2/Vk2 (antibody, V domains shown) VH: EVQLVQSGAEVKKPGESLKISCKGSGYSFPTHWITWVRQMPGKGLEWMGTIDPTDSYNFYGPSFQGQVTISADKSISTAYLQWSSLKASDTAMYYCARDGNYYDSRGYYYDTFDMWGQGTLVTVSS VL: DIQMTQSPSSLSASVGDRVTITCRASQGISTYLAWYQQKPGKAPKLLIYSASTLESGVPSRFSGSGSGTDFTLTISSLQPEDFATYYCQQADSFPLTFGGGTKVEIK . 0.97
